Test system: P. falciparum CQ-resistant W-2
Experiment: In vitro antimalarial assay (pLDH), Pf W-2 strain
Assay type: cell-based, Plasmodium falciparum
Details: W-2 strain
PROPERTY MEASURED: Ratio IC50 cpd/IC50 DHA
Form field (numeric): enter value without unit.

As a guide, the following entries are already answered.
CC1CCC2C(C)C(N3CCN(C4OC(CO)C(O)C(O)C4O)CC3)OC3OC4(C)CCC1C32OO4 (stereo not shown) [Compound 20] :: 2.9
CC1CCC2C(C)C(N3CCN(C4OC(CO)C(O)C4O)CC3)OC3OC4(C)CCC1C32OO4 (stereo not shown) [Compound 26] :: 0.55
CC1CCC2C(C)C(N3CCN(C4OC(CO)C(OC5OC(CO)C(O)C(O)C5O)C(O)C4O)CC3)OC3OC4(C)CCC1C32OO4 (stereo not shown) :: 1.0

Alright, here's another compound for you.
Endpoint output: Ratio IC50 cpd/IC50 DHA of CC1CCC2C(C)C(N3CCN(C4OC(C)C(O)C(O)C4O)CC3)OC3OC4(C)CCC1C32OO4 (stereo not shown) . Value?
0.49

* * *

System: P. falciparum CQ-sensitive D10
Test: In vitro antimalarial assay (pLDH), Pf D10 strain
Assay type: cell-based, Plasmodium falciparum
Settings: D10 strain
Ratio IC50 cpd/IC50 DHA under 0.4 gets 1.0, anything at or over 0.4 gets 0.0.

Here's what some known entries look like.
CC1CCC2C(C)C(N3CCN(C4OC(CO)C(O)C(O)C4O)CC3)OC3OC4(C)CCC1C32OO4 (stereo not shown) [Compound 18] :: 1.0
CC1CCC2C(C)C(N3CCN(C4OC(CO)C(O)C4O)CC3)OC3OC4(C)CCC1C32OO4 (stereo not shown) [Compound 24] :: 0.0
CC1CCC2C(C)C(N3CCN(C4OC(CO)C(O)C4O)CC3)OC3OC4(C)CCC1C32OO4 (stereo not shown) [Compound 26] :: 1.0
CC1CCC2C(C)C(N3CCN(C4OC(CO)C(O)C(O)C4O)CC3)OC3OC4(C)CCC1C32OO4 (stereo not shown) [Compound 20] :: 0.0
C[C@H]1[C@H](N2CCS(=O)(=O)CC2)O[C@@H]2O[C@@]3(C)CC[C@H]4[C@H](C)CC[C@@H]1[C@@]24OO3 [Artemisone 7, artemisone, reference compound] :: 1.0

We now examine a further molecule.
Lab note: Ratio IC50 cpd/IC50 DHA threshold 0.4. Does this molecule come in strictly under it? CC1CCC2C(C)C(N3CCN(C4OC(C)C(O)C(O)C4O)CC3)OC3OC4(C)CCC1C32OO4 (stereo not shown)
1.0

* * *

Tested on: P. falciparum CQ-sensitive D10
Test: In vitro antimalarial assay (pLDH), Pf D10 strain
Assay type: cell-based, Plasmodium falciparum
Settings: D10 strain
PROPERTY MEASURED: Ratio IC50 cpd/IC50 DHA
Form field (numeric): enter value without unit.

As a guide, the following entries are already answered.
CC1CCC2C(C)C(N3CCN(C4OC(CO)C(O)C(O)C4O)CC3)OC3OC4(C)CCC1C32OO4 (stereo not shown) [Compound 19] :: 0.26
CC1CCC2C(C)C(N3CCN(C4CC(O)C(O)C(CO)O4)CC3)OC3OC4(C)CCC1C32OO4 (stereo not shown) [Compound 22] :: 0.68
CC1CCC2C(C)C(N3CCN(C4OC(CO)C(OC5OC(CO)C(O)C(O)C5O)C(O)C4O)CC3)OC3OC4(C)CCC1C32OO4 (stereo not shown) [Compound 21] :: 0.56

Endpoint output: Ratio IC50 cpd/IC50 DHA of CC1CCC2C(C)C(N3CCN(C4OC(CO)C(O)C4O)CC3)OC3OC4(C)CCC1C32OO4 (stereo not shown) [Compound 25] . Value?
0.19

* * *

System: human microvascular endothelial cells (HMEC-1)
Experiment: Cytotoxicity, MTT assay, HMEC-1
Type: cell-based
Details: MTT assay conducted for 72 h, read-out: Mean (±S.D.) IC50 HMEC
Measured pIC50, listed per entry.
Note: pIC50 values are expressed as the negative base-10 logarithm of concentration in M.

As a guide, the following entries are already answered.
CC1CCC2C(C)C(N3CCN(C4OC(CO)C(O)C(O)C4O)CC3)OC3OC4(C)CCC1C32OO4 (stereo not shown) :: 5.36
CC1CCC2C(C)C(N3CCN(C4OC(CO)C(OC5OC(CO)C(O)C(O)C5O)C(O)C4O)CC3)OC3OC4(C)CCC1C32OO4 (stereo not shown) :: 5.60

Endpoint output: pIC50 of C[C@H]1[C@@H](O)O[C@@H]2O[C@@]3(C)CC[C@H]4[C@H](C)CC[C@@H]1[C@@]24OO3 [DHA 2, dihydroartemisinin, reference compound] . Value?
5.94

Endpoint output: pIC50 of CC1CCC2C(C)C(N3CCN(C4OC(CO)C(O)C4O)CC3)OC3OC4(C)CCC1C32OO4 (stereo not shown) . Value?
5.62

* * *

Test system: mouse fibrosarcoma cell line WEHI-164
Experiment: Cytotoxicity, MTT assay, WEHI-164
Type: cell-based
Conditions: Mus musculus, WEHI-164, 72 h, read-out: WEHI-164 Mean ± S.D. IC50
pIC50: −log10 of the molar value.
PROPERTY MEASURED: pIC50

Endpoint output: pIC50 of CCN(CC)CCCC(C)Nc1ccnc2cc(Cl)ccc12 (stereo not shown) [Chloroquine, chloroquine, reference compound] . Value?
< 5.00

* * *

System: P. falciparum CQ-resistant W-2
Assay: In vitro antimalarial assay (pLDH), Pf W-2 strain
Format: cell-based, Plasmodium falciparum
Conditions: W-2 strain
Measured Ratio IC50 cpd/IC50 DHA, listed per entry.
Form field (numeric): enter value without unit.

As a guide, the following entries are already answered.
C[C@H]1[C@H](N2CCS(=O)(=O)CC2)O[C@@H]2O[C@@]3(C)CC[C@H]4[C@H](C)CC[C@@H]1[C@@]24OO3 [Artemisone 7, artemisone, reference compound] :: 0.6
CC1CCC2C(C)C(N3CCN(C4OC(CO)C(O)C(O)C4O)CC3)OC3OC4(C)CCC1C32OO4 (stereo not shown) [Compound 19] :: 0.5
CC1CCC2C(C)C(N3CCN(C4OC(CO)C(O)C4O)CC3)OC3OC4(C)CCC1C32OO4 (stereo not shown) [Compound 25] :: 0.39

Endpoint output: Ratio IC50 cpd/IC50 DHA of CC1CCC2C(C)C(N3CCNCC3)OC3OC4(C)CCC1C32OO4 (stereo not shown) . Value?
0.73

Endpoint output: Ratio IC50 cpd/IC50 DHA of CC1CCC2C(C)C(N3CCN(C4OC(CO)C(O)C4O)CC3)OC3OC4(C)CCC1C32OO4 (stereo not shown) [Compound 24] . Value?
2.7

Endpoint output: Ratio IC50 cpd/IC50 DHA of CC1CCC2C(C)C(N3CCN(C4CC(O)C(O)C(CO)O4)CC3)OC3OC4(C)CCC1C32OO4 (stereo not shown) . Value?
0.73

Endpoint output: Ratio IC50 cpd/IC50 DHA of CC1CCC2C(C)C(N3CCN(C4OC(CO)C(O)C(O)C4O)CC3)OC3OC4(C)CCC1C32OO4 (stereo not shown) [Compound 18] . Value?
0.8

Data origin, for the record: paper PMC6100044
